- SUBJECT OF TEST: T1, monkey IL-25 expressed with a C-terminal myc-myc-hexahistidine tag (M. fascicularis (cynomolgus monkey))
- T1 construct: also called Monkey IL-25-MMH; MfIL-25-MMH
- T1 chain: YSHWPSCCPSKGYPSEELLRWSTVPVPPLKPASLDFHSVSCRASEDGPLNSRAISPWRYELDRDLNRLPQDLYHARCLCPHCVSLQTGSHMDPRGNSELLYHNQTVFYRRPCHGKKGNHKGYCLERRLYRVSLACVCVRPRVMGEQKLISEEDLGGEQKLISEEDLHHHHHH
- PROCEDURE TEXT: SPR Biacore, antibody captured, 37C;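 also: biacore 4000 surface plasmon resonance biosensor measuring binding of IL-25-MMH to purified anti-IL-25 antibodies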
MEASURE NAME: koff (s⁻¹)
Use s⁻¹ as the unit, but write only the number.

- H4H10861P (antibody, human IgG4, V domains shown, H4H prefix = human IgG4 Fc) VH: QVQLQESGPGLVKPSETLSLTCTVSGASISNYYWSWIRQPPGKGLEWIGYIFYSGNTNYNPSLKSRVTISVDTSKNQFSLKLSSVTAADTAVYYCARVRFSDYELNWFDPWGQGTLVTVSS VL: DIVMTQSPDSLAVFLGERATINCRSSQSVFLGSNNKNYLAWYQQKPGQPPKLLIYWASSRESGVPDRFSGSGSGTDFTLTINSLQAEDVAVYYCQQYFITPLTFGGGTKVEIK: 7.14e-05

(Q) Give the measured koff of H4H10876P (antibody, human IgG4, V domains shown, H4H prefix = human IgG4 Fc) VH: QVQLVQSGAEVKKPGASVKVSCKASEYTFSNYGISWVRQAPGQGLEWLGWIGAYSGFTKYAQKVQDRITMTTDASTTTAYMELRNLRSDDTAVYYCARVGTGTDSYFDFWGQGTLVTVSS VL: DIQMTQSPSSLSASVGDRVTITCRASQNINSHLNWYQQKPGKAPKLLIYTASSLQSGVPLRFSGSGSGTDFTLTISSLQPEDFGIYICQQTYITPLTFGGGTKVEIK .
(A) 5.45e-05

(Q) Give the measured koff of H4H10871P (antibody, human IgG4, V domains shown, H4H prefix = human IgG4 Fc) VH: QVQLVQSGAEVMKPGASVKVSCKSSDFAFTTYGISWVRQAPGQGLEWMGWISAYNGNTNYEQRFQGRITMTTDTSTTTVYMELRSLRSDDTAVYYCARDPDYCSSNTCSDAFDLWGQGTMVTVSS VL: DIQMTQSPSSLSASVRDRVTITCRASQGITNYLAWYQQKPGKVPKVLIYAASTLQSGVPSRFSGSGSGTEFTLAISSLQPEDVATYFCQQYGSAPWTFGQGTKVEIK .
(A) 7.4e-05

(Q) Give the measured koff of H4H10883P (antibody, human IgG4, V domains shown, H4H prefix = human IgG4 Fc) VH: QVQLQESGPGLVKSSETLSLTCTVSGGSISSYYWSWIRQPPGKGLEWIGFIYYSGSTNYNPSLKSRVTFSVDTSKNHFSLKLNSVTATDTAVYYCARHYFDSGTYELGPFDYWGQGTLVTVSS VL: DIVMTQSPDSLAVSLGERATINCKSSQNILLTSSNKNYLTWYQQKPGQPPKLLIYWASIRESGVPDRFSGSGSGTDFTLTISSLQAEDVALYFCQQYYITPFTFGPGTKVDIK .
(A) 4.18e-05

(Q) Give the measured koff of H4H10907P (antibody, human IgG4, V domains shown, H4H prefix = human IgG4 Fc) VH: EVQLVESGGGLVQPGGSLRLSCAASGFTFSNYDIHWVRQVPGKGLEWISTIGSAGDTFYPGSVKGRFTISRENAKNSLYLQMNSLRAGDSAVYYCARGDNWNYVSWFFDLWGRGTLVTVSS VL: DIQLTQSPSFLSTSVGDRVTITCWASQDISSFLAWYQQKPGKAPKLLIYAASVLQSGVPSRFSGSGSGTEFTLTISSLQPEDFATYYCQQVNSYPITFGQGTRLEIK .
(A) 0.000101

(Q) Give the measured koff of H4H10905P (antibody, human IgG4, V domains shown, H4H prefix = human IgG4 Fc) VH: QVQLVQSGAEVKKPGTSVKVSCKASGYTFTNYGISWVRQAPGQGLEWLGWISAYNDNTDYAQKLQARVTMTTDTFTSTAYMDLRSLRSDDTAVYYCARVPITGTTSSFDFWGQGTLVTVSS VL: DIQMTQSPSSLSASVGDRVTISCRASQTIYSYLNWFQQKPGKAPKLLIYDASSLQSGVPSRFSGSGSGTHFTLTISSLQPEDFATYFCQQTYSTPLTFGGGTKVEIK .
(A) 9.01e-05
